# pEC50 per record follows
Target: T1, CD19 (UniProt P15391 20-556)
T1 chain: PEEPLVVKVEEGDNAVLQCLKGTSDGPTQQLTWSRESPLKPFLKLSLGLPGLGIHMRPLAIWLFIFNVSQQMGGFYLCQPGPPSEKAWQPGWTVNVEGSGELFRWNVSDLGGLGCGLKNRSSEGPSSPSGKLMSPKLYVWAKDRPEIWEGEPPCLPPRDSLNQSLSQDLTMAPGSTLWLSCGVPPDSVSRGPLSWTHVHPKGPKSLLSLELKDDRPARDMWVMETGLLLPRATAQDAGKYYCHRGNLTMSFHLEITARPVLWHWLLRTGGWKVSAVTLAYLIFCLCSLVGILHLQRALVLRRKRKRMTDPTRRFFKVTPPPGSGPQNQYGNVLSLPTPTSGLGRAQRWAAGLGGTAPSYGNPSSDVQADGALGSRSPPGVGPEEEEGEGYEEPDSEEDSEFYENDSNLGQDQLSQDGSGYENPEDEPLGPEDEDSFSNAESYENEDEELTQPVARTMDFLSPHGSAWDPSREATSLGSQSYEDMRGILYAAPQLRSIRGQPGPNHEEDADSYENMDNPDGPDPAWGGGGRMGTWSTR
Experiment: flow cytometry cell binding; FIG. 8
pEC50: −log10 of the molar value.
Measured parameter: pEC50

{"columns": ["Binder", "Number"],
 "data": [
  ["hFMCL2/H4b wt (antibody, V domains shown) VH: QVQLQESGPGLVKPSETLSVTCTVSGVSLPDYGVSWIRQPPGKGLEWLGVIWGSETTYYNPSLKSRLTISKDNSKNQVSLKMSSLTAADTAVYYCAKHYYYGGSYAMDYWGQGTLVTVSS VL: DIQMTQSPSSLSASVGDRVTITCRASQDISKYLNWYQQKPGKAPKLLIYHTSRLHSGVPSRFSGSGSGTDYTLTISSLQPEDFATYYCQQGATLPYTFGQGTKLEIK", 8.42],
  ["hFMCL2a-LCNT/hFMCH4c (Fab, V domains shown) VH: QVQLQESGPGLVKPSETLSVTCTVSGVSLPDYGVSWIRQPPGKGLEWLGVIWGSETTYYNSALKSRLTISKDNSKNQVSLKMSSLTAADTAVYYCAKHYYYGGSYAMDYWGQGTLVTVSS VL: DIQMTQSPSSLSASVGDRVTITCRASQDISKYLNWYQQKPGKAVKLLIYHTSRLHSGVPSRFSGSGSGTDYTLTISSLQPEDFATYYCQQGATLPYTFGQGTKLEIK", 8.74],
  ["hFMCL2b-LCNT/hFMCH4c (Fab, V domains shown) VH: QVQLQESGPGLVKPSETLSVTCTVSGVSLPDYGVSWIRQPPGKGLEWLGVIWGSETTYYNSALKSRLTISKDNSKNQVSLKMSSLTAADTAVYYCAKHYYYGGSYAMDYWGQGTLVTVSS VL: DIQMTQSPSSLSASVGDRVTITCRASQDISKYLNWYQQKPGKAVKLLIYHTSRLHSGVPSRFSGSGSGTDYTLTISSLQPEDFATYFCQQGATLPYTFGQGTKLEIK", 8.80]
]}
